Data provenance is patent US5567692A.

test system: E. coli J3272 Tet C; test: microbe, parasite or virus in culture; assay type: cell-based; settings: Escherichia coli, J3272TETC, 18 h
Structures can show the parent of a compound that is named as a salt.
Experimental Endpoint: MIC (µg/mL)

Compound: CN(C)[C@@H]1C(O)=C(C(N)=O)C(=O)[C@@]2(O)C(O)=C3C(=O)c4c(ccc(NC(=O)CN5CCCCC5)c4O)CC3CC12 (stereo partly drawn) [I, dihydrochloride]
Relation Symbol: =
Experimental Result: 1
//
Compound: CN(C)c1ccc(O)c2c1C[C@H]1C[C@H]3[C@H](N(C)C)C(O)=C(C(N)=O)C(=O)[C@@]3(O)C(O)=C1C2=O [U, Minocycline, reference compound]
Relation Symbol: =
Experimental Result: 1
//
Compound: CN(C)[C@@H]1C(O)=C(C(N)=O)C(=O)[C@@]2(O)C(O)=C3C(=O)c4c(ccc(NC(=O)CNCc5ccccn5)c4O)CC3CC12 (stereo partly drawn) [N, dihydrochloride]
Relation Symbol: >
Experimental Result: 32

====

tested on: E. faecalis ATCC 29212; assay: MIC, agar dilution; assay type: cell-based; conditions: Enterococcus faecalis, ATCC29212, 18 h, E. faecalis ATCC 29212; read-out: MIC
Where a name gives a salt, the structure may show the parent alone.
Reported MIC values are given for each entry in this list.

Compound: CCCCCCNCC(=O)Nc1ccc2c(c1O)C(=O)C1=C(O)[C@]3(O)C(=O)C(C(N)=O)=C(O)[C@@H](N(C)C)C3CC1C2 (stereo partly drawn) [G, dihydrochloride]
MIC: 0.12 mg/L

Compound: CN(C)[C@@H]1C(O)=C(C(N)=O)C(=O)[C@@]2(O)C(O)=C3C(=O)c4c(ccc(NC(=O)CN5CCCCC5)c4O)CC3CC12 (stereo partly drawn) [I, dihydrochloride]
MIC: 0.25 mg/L

Compound: CN(C)[C@@H]1C(O)=C(C(N)=O)C(=O)[C@@]2(O)C(O)=C3C(=O)c4c(ccc(NC(=O)CNCc5ccccn5)c4O)CC3CC12 (stereo partly drawn) [N, dihydrochloride]
MIC: 4 mg/L

Compound: CCCCNCC(=O)Nc1ccc2c(c1O)C(=O)C1=C(O)[C@]3(O)C(=O)C(C(N)=O)=C(O)[C@@H](N(C)C)C3CC1C2 (stereo partly drawn) [H, dihydrochloride]
MIC: 0.12 mg/L

Compound: CC(C(=O)Nc1ccc2c(c1O)C(=O)C1=C(O)[C@]3(O)C(=O)C(C(N)=O)=C(O)[C@@H](N(C)C)C3CC1C2)N(C)C (stereo partly drawn) [B, dihydrochloride]
MIC: 0.25 mg/L

Compound: CC(C(=O)Nc1ccc2c(c1O)C(=O)C1=C(O)[C@]3(O)C(=O)C(C(N)=O)=C(O)[C@@H](N(C)C)C3CC1C2)N1CCCC1 (stereo partly drawn) [P]
MIC: 0.25 mg/L

Compound: CCCNCC(=O)Nc1ccc2c(c1O)C(=O)C1=C(O)[C@]3(O)C(=O)C(C(N)=O)=C(O)[C@@H](N(C)C)C3CC1C2 (stereo partly drawn) [C, dihydrochloride]
MIC: 0.12 mg/L

Compound: CCN(CC)CC(=O)Nc1ccc2c(c1O)C(=O)C1=C(O)[C@]3(O)C(=O)C(C(N)=O)=C(O)[C@@H](N(C)C)C3CC1C2 (stereo partly drawn) [O, dihydrochloride]
MIC: 0.25 mg/L

Compound: CN(C)CC(=O)Nc1ccc2c(c1O)C(=O)C1=C(O)[C@]3(O)C(=O)C(C(=O)NCN4CCCC4)=C(O)[C@@H](N(C)C)C3CC1C2 (stereo partly drawn) [EE]
MIC: 0.12 mg/L

====

system: X. maltophilia NEMC 87210; experiment: MIC, agar dilution; assay type: cell-based; details: Stenotrophomonas maltophilia, NEMC87210, 18 h
Where a name gives a salt, the structure may show the parent alone.
Experimental Endpoint: MIC

Compound: CC(C(=O)Nc1ccc2c(c1O)C(=O)C1=C(O)[C@]3(O)C(=O)C(C(N)=O)=C(O)[C@@H](N(C)C)C3CC1C2)N1CCCC1 (stereo partly shown)
Experimental Endpoint: MIC
Experimental Result: 4 µg/mL
//
Compound: CCCNCC(=O)Nc1ccc2c(c1O)C(=O)C1=C(O)[C@]3(O)C(=O)C(C(N)=O)=C(O)[C@@H](N(C)C)C3CC1C2 (stereo partly shown) [C, dihydrochloride]
Experimental Endpoint: MIC
Experimental Result: 4 µg/mL
//
Compound: CCCCCNCC(=O)Nc1ccc2c(c1O)C(=O)C1=C(O)[C@]3(O)C(=O)C(C(N)=O)=C(O)[C@@H](N(C)C)C3CC1C2 (stereo partly shown) [K, monohydrochloride]
Experimental Endpoint: MIC
Experimental Result: 1 µg/mL
//
Compound: CN(C)[C@@H]1C(O)=C(C(N)=O)C(=O)[C@@]2(O)C(O)=C3C(=O)c4c(ccc(NC(=O)CBr)c4O)CC3CC12 (stereo partly shown) [R, monohydrochloride]
Experimental Endpoint: MIC
Experimental Result: 16 µg/mL
//
Compound: CN(C)[C@@H]1C(O)=C(C(N)=O)C(=O)[C@@]2(O)C(O)=C3C(=O)c4c(ccc(NC(=O)CNCc5cccs5)c4O)CC3CC12 (stereo partly shown) [L, dihydrochloride]
Experimental Endpoint: MIC
Experimental Result: > 32 µg/mL
//
Compound: CCCCCCNCC(=O)Nc1ccc2c(c1O)C(=O)C1=C(O)[C@]3(O)C(=O)C(C(N)=O)=C(O)[C@@H](N(C)C)C3CC1C2 (stereo partly shown) [G, dihydrochloride]
Experimental Endpoint: MIC
Experimental Result: 1 µg/mL
//
Compound: CNCC(=O)Nc1ccc2c(c1O)C(=O)C1=C(O)[C@]3(O)C(=O)C(C(N)=O)=C(O)[C@@H](N(C)C)C3CC1C2 (stereo partly shown) [F, dihydrochloride]
Experimental Endpoint: MIC
Experimental Result: 16 µg/mL
//
Compound: CN(C)[C@@H]1C(O)=C(C(N)=O)C(=O)[C@@]2(O)C(O)=C3C(=O)c4c(ccc(NC(=O)CN5CCCC5)c4O)CC3CC12 (stereo partly shown) [D, dihydrochloride]
Experimental Endpoint: MIC
Experimental Result: 1 µg/mL
//
Compound: CCCCNCC(=O)Nc1ccc2c(c1O)C(=O)C1=C(O)[C@]3(O)C(=O)C(C(N)=O)=C(O)[C@@H](N(C)C)C3CC1C2 (stereo partly shown) [H, dihydrochloride]
Experimental Endpoint: MIC
Experimental Result: 1 µg/mL
//
Compound: CC(C(=O)Nc1ccc2c(c1O)C(=O)C1=C(O)[C@]3(O)C(=O)C(C(N)=O)=C(O)[C@@H](N(C)C)C3CC1C2)N(C)C (stereo partly shown) [B, dihydrochloride]
Experimental Endpoint: MIC
Experimental Result: 2 µg/mL
//
Compound: CN(C)[C@@H]1C(O)=C(C(N)=O)C(=O)[C@@]2(O)C(O)=C3C(=O)c4c(ccc(NC(=O)CNCc5ccccn5)c4O)CC3CC12 (stereo partly shown) [N, dihydrochloride]
Experimental Endpoint: MIC
Experimental Result: > 32 µg/mL
//
Compound: CCN(CC)CC(=O)Nc1ccc2c(c1O)C(=O)C1=C(O)[C@]3(O)C(=O)C(C(N)=O)=C(O)[C@@H](N(C)C)C3CC1C2 (stereo partly shown) [O, dihydrochloride]
Experimental Endpoint: MIC
Experimental Result: 1 µg/mL
//
Compound: CN(C)[C@@H]1C(O)=C(C(N)=O)C(=O)[C@@]2(O)C(O)=C3C(=O)c4c(ccc(NC(=O)CNCc5ccccc5)c4O)CC3CC12 (stereo partly shown) [J, dihydrochloride]
Experimental Endpoint: MIC
Experimental Result: 16 µg/mL
//
Compound: CN(C)[C@@H]1C(O)=C(C(N)=O)C(=O)[C@@]2(O)C(O)=C3C(=O)c4c(ccc(NC(=O)CN5CCCCC5)c4O)CC3CC12 (stereo partly shown) [I, dihydrochloride]
Experimental Endpoint: MIC
Experimental Result: 0.5 µg/mL
//
Compound: CCNCC(=O)Nc1ccc2c(c1O)C(=O)C1=C(O)[C@]3(O)C(=O)C(C(N)=O)=C(O)[C@@H](N(C)C)C3CC1C2 (stereo partly shown) [E, dihydrochloride]
Experimental Endpoint: MIC
Experimental Result: 8 µg/mL
//
Compound: CN(C)[C@@H]1C(O)=C(C(N)=O)C(=O)[C@@]2(O)C(O)=C3C(=O)c4c(ccc(NC(=O)CNCC5CC5)c4O)CC3CC12 (stereo partly shown) [Q, dihydrochloride]
Experimental Endpoint: MIC
Experimental Result: 4 µg/mL

====

test system: S. aureus IVES 1983; test: MIC, agar dilution; assay type: cell-based; settings: Staphylococcus aureus, IVES1983, 18 h, S. aureus IVES 1983; read-out: MIC
Counter-ions that a name gives are not always drawn.
Listed compounds paired with reported MIC

Compound: CN(C)CC(=O)Nc1ccc2c(c1O)C(=O)C1=C(O)[C@]3(O)C(=O)C(C(N)=O)=C(O)[C@@H](N(C)C)C3CC1C2 (stereo partly drawn)
MIC / µg/mL: 0.5

Compound: CCCNCC(=O)Nc1ccc2c(c1O)C(=O)C1=C(O)[C@]3(O)C(=O)C(C(N)=O)=C(O)[C@@H](N(C)C)C3CC1C2 (stereo partly drawn) [C, dihydrochloride]
MIC / µg/mL: 4

Compound: CNCC(=O)Nc1ccc2c(c1O)C(=O)C1=C(O)[C@]3(O)C(=O)C(C(N)=O)=C(O)[C@@H](N(C)C)C3CC1C2 (stereo partly drawn) [F, dihydrochloride]
MIC / µg/mL: 16

Compound: CC(C(=O)Nc1ccc2c(c1O)C(=O)C1=C(O)[C@]3(O)C(=O)C(C(N)=O)=C(O)[C@@H](N(C)C)C3CC1C2)N(C)C (stereo partly drawn) [B, dihydrochloride]
MIC / µg/mL: 1

Compound: CC(Br)C(=O)Nc1ccc2c(c1O)C(=O)C1=C(O)[C@]3(O)C(=O)C(C(N)=O)=C(O)[C@@H](N(C)C)C3CC1C2 (stereo partly drawn) [S, dihydrochloride]
MIC / µg/mL: 32

Compound: CN(C)[C@@H]1C(O)=C(C(N)=O)C(=O)[C@@]2(O)C(O)=C3C(=O)c4c(ccc(NC(=O)CNCc5ccccc5)c4O)CC3CC12 (stereo partly drawn) [J, dihydrochloride]
MIC / µg/mL: 4
